# assayedSystem: recombinant human TFPI (tissue factor pathway inhibitor) (human, UniProt P10646 29-304)
# testProtocol: cell-based or functional assay
valueKind: FXa assay OD, 2.5 nM Ab, 10 nM TFPI
When you answer, write just the number.

// FXa assay OD, 2.5 nM Ab, 10 nM TFPI lookup, binder = clone 3024 (antibody, V domains shown) VH: EVQLVESGGGLVKPGGSLRLSCAASGFTFSSYAMSWVRQAPGKGLEWVSTITTGGSYTYYADSVQGRFTISRDNAKNSLYLQMNSLRAEDTAVYYCARQDGNFLMDYWGQGTLVTVSS VL: DVVMTQTPLSLPVTLGQPASISCKSSQSLLDSDGKTYLNWLQQRPGQSPKRLIYLVSKLDSGVPDRFTGSGSGTDFTLKISRVEAEDVGVYYCWQGTHLPFTFGQGTKVEIKR , result: 0.026

Documented FXa assay OD, 2.5 nM Ab, 10 nM TFPI of clone 1021 (antibody, V domains shown) VH: EVQLVESGGGLVKPGGSLRLSCAASGFTFSSYAMNWVRQAPGKGLEWVSTITTGGSYTYYADSVDGRFTISRDNAKNSLYLQMNSLRAEDTAVYYCARQDGHFLMDYWGQGTLVTVSS VL: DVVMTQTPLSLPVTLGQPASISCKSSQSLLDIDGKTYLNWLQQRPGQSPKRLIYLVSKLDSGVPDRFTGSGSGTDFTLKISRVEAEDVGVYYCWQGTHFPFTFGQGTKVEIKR : 0.034

FXa assay OD, 2.5 nM Ab, 10 nM TFPI in this record for clone 1023 (antibody, V domains shown, scFv on yeast at selection; human IgG4/kappa IgG as purified) VH: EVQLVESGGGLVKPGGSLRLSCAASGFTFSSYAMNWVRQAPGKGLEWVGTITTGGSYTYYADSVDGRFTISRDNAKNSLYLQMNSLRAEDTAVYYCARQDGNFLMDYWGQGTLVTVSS VL: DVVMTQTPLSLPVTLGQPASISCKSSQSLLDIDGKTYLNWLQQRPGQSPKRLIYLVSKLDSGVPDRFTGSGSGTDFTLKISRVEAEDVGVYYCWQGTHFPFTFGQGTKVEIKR : 0.0605

Form field FXa assay OD, 2.5 nM Ab, 10 nM TFPI, entry clone 1015 (antibody, V domains shown) VH: EVQLVESGGGLVKPGGSLRLSCAASGFTFSSYAMNWVRQAPGKGLEWVSTITTGGSHTYYADSVEGRFTISRDNAKNSLYLQMNSLRAEDTAVYYCARQDGNFLMDYWGQGTLVTVSS VL: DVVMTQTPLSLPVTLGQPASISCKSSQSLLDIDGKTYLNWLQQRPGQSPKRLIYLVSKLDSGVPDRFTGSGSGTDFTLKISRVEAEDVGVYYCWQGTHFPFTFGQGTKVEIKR : 0.0465
